Values compiled from ChEMBL document CHEMBL5390236.

assay: Cytotoxicity against human WI-38 cells assessed as reduction in cell population by MTT assay relative to control; format: toxicity, cell-based
ATTRIBUTE_MEASURED: Emax (%)

> print(dat)
                            compound.string  attribute.measured  meas.value
1  C[C@@H](CCCCCCCCCCCCCCO[C@@H]1O[C@H](CO)[C@@H](O)[C@H](O)[C@@H]1O)C(=O)C1=C(O)N(C)[C@@H](C)C1=O                Emax         4.6
2  C[C@@H](CCCCCCCCCCCCCCO)C(=O)C1=C(O)N(C)[C@@H](C)C1=O                Emax          20

---

assay: Cytotoxicity against human WI-38 cells assessed as reduction in cell population to midpoint between values of non-treated control and lowest population by MTT assay; assay type: toxicity, cell-based
pEC50: −log10 of the molar value.
Form field: pEC50 (one value per entry).
ATTRIBUTE_MEASURED: pEC50

> print(dat)
                            compound.string  attribute.measured  meas.value
1  C[C@@H](CCCCCCCCCCCCCCO[C@@H]1O[C@H](CO)[C@@H](O)[C@H](O)[C@@H]1O)C(=O)C1=C(O)N(C)[C@@H](C)C1=O               pEC50        4.47
2  C[C@@H](CCCCCCCCCCCCCCO)C(=O)C1=C(O)N(C)[C@@H](C)C1=O               pEC50        5.04

---

assay: Cytotoxicity against human WI-38 cells assessed as reduction in cell population to half by MTT assay; format: toxicity, cell-based
pIC50: −log10 of the molar value.
Examples of molecules with documented pIC50 follow.
ATTRIBUTE_MEASURED: pIC50

> print(dat)
                            compound.string  attribute.measured  meas.value
1  C[C@@H](CCCCCCCCCCCCCCO)C(=O)C1=C(O)N(C)[C@@H](C)C1=O               pIC50        4.82
2  C[C@@H](CCCCCCCCCCCCCCO[C@@H]1O[C@H](CO)[C@@H](O)[C@H](O)[C@@H]1O)C(=O)C1=C(O)N(C)[C@@H](C)C1=O               pIC50        4.42
